# MEASURED_TARGET: T1, Human CD98 ECD with N-terminal His-tag (human, UniProt P08195 105-529)
# T1 construct: The entry includes the linker and the polyhistidine tag; also called huCD98 ECD
# T1 sequence: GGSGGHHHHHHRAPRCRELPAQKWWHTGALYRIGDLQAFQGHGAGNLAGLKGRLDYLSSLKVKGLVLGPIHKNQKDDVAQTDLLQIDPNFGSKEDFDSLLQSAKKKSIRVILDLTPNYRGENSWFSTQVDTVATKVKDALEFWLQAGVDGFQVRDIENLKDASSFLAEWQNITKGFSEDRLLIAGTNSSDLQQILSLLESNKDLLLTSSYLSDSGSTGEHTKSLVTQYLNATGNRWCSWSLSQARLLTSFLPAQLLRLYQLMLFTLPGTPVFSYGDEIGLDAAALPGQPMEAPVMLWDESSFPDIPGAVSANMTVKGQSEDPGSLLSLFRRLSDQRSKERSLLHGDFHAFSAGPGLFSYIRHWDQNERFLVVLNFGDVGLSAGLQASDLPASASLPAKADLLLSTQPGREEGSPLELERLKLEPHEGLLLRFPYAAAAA
# MEASUREMENT_PROTOCOL: SPR (Biacore), recombinant CD98 ECD
ENDPOINT_LABEL: koff (s⁻¹)
Use s⁻¹ as the unit, but write only the number.

q: Entry huAb108 (antibody, human IgG1, kappa, L234A L235A, V domains shown, Framework re-engineered humanized clone (parent huAb15v2); also called CL-huAb108) VH: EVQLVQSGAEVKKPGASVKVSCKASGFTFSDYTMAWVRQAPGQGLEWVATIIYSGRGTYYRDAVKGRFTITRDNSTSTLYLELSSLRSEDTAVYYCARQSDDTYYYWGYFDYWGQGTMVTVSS VL: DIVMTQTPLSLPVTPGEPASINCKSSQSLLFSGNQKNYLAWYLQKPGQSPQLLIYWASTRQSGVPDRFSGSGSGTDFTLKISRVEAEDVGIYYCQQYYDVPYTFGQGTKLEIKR needs its koff filled in; supply it.
a: 4.1e-05
